- Assay Explanation: binders from COS7 lysate, DM2A8 probe, primary screen, torsin A project, cell lysate, small-molecule microarray, fluorescence 635/667 (AID 1065)
- Experimental Parameters: higher = more signal, COS7 lysate expressing mutant human TOR1A
Label label 0 if composite z-score falls below 0.3; label label 1 in every other case.

| Compound | Qualitative Label |
| --- | --- |
| COC(=O)[C@@]1(Cc2ccc(F)cc2)[C@H]2c3cc(C(=O)N(C)C)n(CCSCCO)c3C[C@H]2CN1C(=O)c1ccccc1 | label 0 |

Ask: Quick check, composite z-score >= 0.3? "COC(=O)C(CC#Cc1ccc2c(c1)[C@]1(C(=O)N2)[C@H](c2ccc(O)cc2)N2[C@H](c3ccccc3)[C@H](c3ccccc3)OC(=O)[C@H]2[C@@H]1C(=O)O)C(=O)OC"
Result: label 0

Ask: Would you mind doing "C=CCOC(=O)[C@@H]1[C@H]2C(=O)O[C@H](c3ccccc3)[C@H](c3ccccc3)N2[C@H](c2ccc(OCCOC(=O)[C@@H]3C[C@@H]4C(=O)N5CCC[C@H]5C(=O)N4[C@@H]3c3cccc(OCCO)c3)cc2)[C@@]12C(=O)Nc1ccc(I)cc12" as well?
Result: label 1

Ask: Would you mind doing "[N-]=[N+]=Nc1ccccc1C[C@]1(C(=O)NCCN2CCOCC2)N=C(c2ccc(OCCCO)cc2)O[C@H]1c1ccccc1N=[N+]=[N-]" as well?
Result: label 0

Ask: Would you mind doing "O=C(NCc1ccccc1)[C@]1(Cc2ccccc2)N=C(c2ccc(OCCCO)cc2)O[C@@H]1c1ccccc1" as well?
Result: label 0

Ask: Would you mind doing "NC(=O)[C@H]1[C@@H]2C(=O)O[C@@H](c3ccccc3)[C@@H](c3ccccc3)N2[C@@H](c2ccc(O)cc2)[C@]12C(=O)Nc1ccc(C#CC3(O)CCCCCC3)cc12" as well?
Result: label 1

Ask: Would you mind doing "O=C1C[C@@](C(=O)NCc2ccccc2)(c2ccc([N+](=O)[O-])cc2)[C@@H](c2ccc(CO)cc2I)N1C1CCCCC1" as well?
Result: label 1

Ask: Would you mind doing "COCCOC(=O)N1C(=O)[C@@]2(c3cc(C#CC4(O)CCCCCC4)ccc31)[C@H](C(=O)N1CCc3cc(OC)c(OC)cc3C1)[C@H]1C(=O)O[C@H](c3ccccc3)[C@H](c3ccccc3)N1[C@@H]2c1ccccc1OCCO" as well?
Result: label 1

Ask: Would you mind doing Cc1ccc(C(C)CC(O)C2C=CC3C(=O)N(Cc4ccccc4)C(=O)C3N2n2cnnc2)o1 (stereo not drawn) as well?
Result: label 1

Ask: Would you mind doing "[N-]=[N+]=NCc1ccccc1C[C@@]1(C(=O)NCCN2CCOCC2)N=C(c2ccc(OCCCO)cc2)O[C@@H]1c1ccccc1CN=[N+]=[N-]" as well?
Result: label 1

Ask: Would you mind doing "CN(C)CCCNC(=O)[C@@]1(Cc2ccccc2I)c2ccccc2C(=O)N(Cc2ccccc2Cl)[C@H]1c1ccc(CO)cc1" as well?
Result: label 0

Ask: Would you mind doing "C=CCOc1ccc([C@@H]2CC=C(C(=O)OCC)[C@H](c3cccc(Br)c3)N2S(=O)(=O)c2ccc(C)cc2)cc1" as well?
Result: label 0

Ask: Would you mind doing "C[N+](C)(C)CCCC[C@@H]1NC(=O)[C@@H]2C[C@H](C(=O)NCCCCCNC(=O)CS)[C@H](c3cccc(OCCO)c3)N2C1=O" as well?
Result: label 1
